- ASSAYED SYSTEM: Sulfolobus CYP119 (cytochrome P450 119, parent sequence SEQ ID NO: 1), apo form, CYP119-141 mutant (C317G, T213G, V254L, L155W) (Sulfolobus acidocaldarius, UniProt Q55080, C317G/L155W/T213G/V254L)
- Construct: made in house
- Sequence (Q55080 whole entry L155W/T213G/V254L/C317G): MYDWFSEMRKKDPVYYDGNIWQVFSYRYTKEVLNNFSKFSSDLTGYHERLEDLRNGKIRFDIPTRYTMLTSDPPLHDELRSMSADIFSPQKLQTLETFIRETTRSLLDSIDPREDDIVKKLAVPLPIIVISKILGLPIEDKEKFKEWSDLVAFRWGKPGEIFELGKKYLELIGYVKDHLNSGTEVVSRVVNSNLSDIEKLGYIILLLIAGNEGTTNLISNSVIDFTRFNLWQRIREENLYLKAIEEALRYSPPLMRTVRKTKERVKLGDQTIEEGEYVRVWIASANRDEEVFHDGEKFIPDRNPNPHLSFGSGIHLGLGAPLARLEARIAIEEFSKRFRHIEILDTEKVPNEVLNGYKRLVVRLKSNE
- METHOD DESCRIPTION: Binding affinity of apo-CYP119 towards Ir(Me)MPIX/hemin (intrinsic fluorescence quenching, Benesi-Hildebrand)
- Parameters: species or system Sulfolobus solfataricus
- PROTOCOL CONDITIONS: excitation 294 nm, 10 mM TRIS buffer pH 8.0, Benesi-Hildebrand analysis, read-out: Kd
MEASURED ATTRIBUTE: Kd

INSERT INTO results (compound_string, measured_attribute, result) VALUES
  ('CCC1=C(C)c2cc3[n-]c(cc4[n-]c(cc5nc(cc1n2)C(C)=C5CC)c(C)c4CCC(=O)O)c(CCC(=O)O)c3C.[CH3-].[Ir+3]', 'Kd', '2400 nM');
